target: Mitogen-activated protein kinase 14 (Homo sapiens, UniProt Q16539); test: Inhibition of p38alpha MAP kinase in human whole blood assessed as inhibition of LPS-induced TNFalpha release by ELISA
Sequence (Q16539 whole entry): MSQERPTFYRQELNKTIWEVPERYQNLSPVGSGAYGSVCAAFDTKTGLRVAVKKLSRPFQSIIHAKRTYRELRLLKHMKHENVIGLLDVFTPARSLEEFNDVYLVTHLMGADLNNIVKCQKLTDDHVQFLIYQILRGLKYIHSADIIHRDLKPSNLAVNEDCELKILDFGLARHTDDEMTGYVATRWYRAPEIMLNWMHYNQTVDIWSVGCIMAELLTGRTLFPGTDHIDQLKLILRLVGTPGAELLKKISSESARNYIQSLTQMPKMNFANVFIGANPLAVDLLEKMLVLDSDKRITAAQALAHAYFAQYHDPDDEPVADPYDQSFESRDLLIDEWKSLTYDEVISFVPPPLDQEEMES
pIC50: −log10 of the molar value.
Experimental readout: pIC50

Nc1cccc(Nc2ccc3c(c2)OCc2ccc(OCCN4CCOCC4)cc2C3=O)c1	6.16

[I] Nc1ccc2c(c1)C(=O)c1ccc(Nc3cc(F)c(F)cc3F)cc1OC2
[II] Nc1ccccc1Nc1ccc2c(c1)OCc1cc(OCCN3CCOCC3)ccc1C2=O
Field: lower pIC50 | Options: I / II Label of pick, please.
II

[I] O=C1c2cc(OCCC3CCCCC3)ccc2COc2cc(Nc3ccc(F)cc3F)ccc21
[II] O=C1c2cc(OC[C@H](O)CO)ccc2COc2cc(Nc3ccc(F)cc3F)ccc21
Field: lower pIC50 | Options: I / II Label of pick, please.
I

[1] Nc1ccc2c(c1)C(=O)c1ccc(Nc3ccccc3N)cc1OC2
[2] O=C1c2ccccc2CCc2cc(Nc3ccc(F)cc3F)ccc21
[3] CN(C)CCOc1ccc2c(c1)COc1cc(Nc3ccc(F)cc3F)ccc1C2=O
[4] COc1ccc2c(c1)C(=O)c1ccc(Nc3ccc(F)cc3F)cc1OC2
Order field: pIC50 | Direction: descending (largest first) I would appreciate it if you listed the labels in the requested order.
1, 2, 4, 3

* * *

biological target: Mitogen-activated protein kinase 14 (Homo sapiens); assay: Competitive inhibition of p38alpha MAP kinase (unknown origin) in presence of 300 uM ATP
Experimental readout: IC50 (nM)
Response body: numeric value in nM, unit text excluded.

Could you share which IC50 value was measured for Cc1cc(F)c(NC(=O)c2ccsc2)cc1Nc1ccc2c(c1)OCc1ccc(OC[C@H](O)CO)cc1C2=O ?
4

* * *

target: Mitogen-activated protein kinase 14 (Homo sapiens, UniProt Q16539); test: Competitive inhibition of p38alpha MAP kinase (unknown origin) in presence of 100 uM ATP
pIC50: −log10 of the molar value.
Experimental readout: pIC50

The cases that follow already have their pIC50 on record.
CC1(C)OC[C@@H](COc2ccc3c(c2)COc2cc(Nc4ccc(F)cc4F)ccc2C3=O)O1	6.18
O=C1c2cc(OCCN3CCOCC3)ccc2COc2cc(Nc3ccc(F)cc3F)ccc21	7.68
O=C1c2ccc(Nc3ccc(F)cc3F)cc2CCc2ccc(OCCO)cc21	7.72

[a] O=C(Nc1cc(Nc2ccc3c(c2)OCc2cc(OCCN4CCOCC4)ccc2C3=O)ccc1F)c1ccccc1
[b] O=C1c2ccc(OCCN3CCOCC3)cc2COc2cc(Nc3ccc(F)cc3F)ccc21
Field: lower pIC50 | Options: a / b Label of pick, please.
b

* * *

target: Mitogen-activated protein kinase 14 (Homo sapiens); assay: Competitive inhibition of p38alpha MAP kinase (unknown origin) in presence of 100 uM ATP
pIC50: −log10 of the molar value.
Experimental readout: pIC50

COc1cccc2c1COc1cc(Nc3ccccc3N)ccc1C2=O	7.03
Nc1ccccc1Nc1ccc2c(c1)OCc1cc(OCCN3CCOCC3)ccc1C2=O	6.83
O=C1c2ccc(Nc3ccc(F)cc3F)cc2OCc2c(OCCN3CCOCC3)cccc21	7.47

[P] Cc1cc(F)c(NC(=O)c2ccsc2)cc1Nc1ccc2c(c1)OCc1ccc(OCCN3CCOCC3)cc1C2=O
[Q] O=C1c2cc(NCCN3CCOCC3)ccc2COc2cc(Nc3ccc(F)cc3F)ccc21
Hi team, can someone confirm which has the larger pIC50: P or Q ? Thanks. Label of pick, please.
P
